experiment_summary: Toxicity liver stage against HepG2, at 10uM
Assay type: cell-based
Parameters: test concentration 10 uM, cell line HepG2-A16-CD81EGFP
stated_conditions: human, HepG2-A16-CD81EGFP cells; read-out: INHIBITION
readout_kind: cytotoxicity at 10 µM (%)
Note: unit % is implicit; provide only the numeric part.

Answered cases to consult:
> print(dat)
                                   molecule  scale.unit  result.number
1  Cc1n[nH]c(C2CN(CC(=O)NCCc3ccccc3C)CCO2)n1 (stereo unspecified)           %          -3.94
2        CCc1nc(NS(=O)(=O)c2ccc(C)cc2Cl)no1           %          -1.51
3          Cc1cc(=O)n2nc(Oc3cccc(I)c3)sc2n1           %           3.63
4        CCN(C)Cc1n[nH]c(=O)n1-c1cc(F)ccc1C           %           11.4
5  CC(C(=O)N1CCCC1)n1nc(-c2cccs2)cc(N)c1=O (stereo unspecified)           %           6.66

[Q] Supply recorded cytotoxicity at 10 µM for Cc1ccc2nc(CN3CCCC3c3cccnc3)cc(O)c2c1 (stereo unspecified) here.
[A] 3.16
